Parameter: IC50. Scope: all listed entries.
- Target Or System: human Nav1.8 (Homo sapiens, UniProt Q9Y5Y9)
- Sequence (Q9Y5Y9 whole entry): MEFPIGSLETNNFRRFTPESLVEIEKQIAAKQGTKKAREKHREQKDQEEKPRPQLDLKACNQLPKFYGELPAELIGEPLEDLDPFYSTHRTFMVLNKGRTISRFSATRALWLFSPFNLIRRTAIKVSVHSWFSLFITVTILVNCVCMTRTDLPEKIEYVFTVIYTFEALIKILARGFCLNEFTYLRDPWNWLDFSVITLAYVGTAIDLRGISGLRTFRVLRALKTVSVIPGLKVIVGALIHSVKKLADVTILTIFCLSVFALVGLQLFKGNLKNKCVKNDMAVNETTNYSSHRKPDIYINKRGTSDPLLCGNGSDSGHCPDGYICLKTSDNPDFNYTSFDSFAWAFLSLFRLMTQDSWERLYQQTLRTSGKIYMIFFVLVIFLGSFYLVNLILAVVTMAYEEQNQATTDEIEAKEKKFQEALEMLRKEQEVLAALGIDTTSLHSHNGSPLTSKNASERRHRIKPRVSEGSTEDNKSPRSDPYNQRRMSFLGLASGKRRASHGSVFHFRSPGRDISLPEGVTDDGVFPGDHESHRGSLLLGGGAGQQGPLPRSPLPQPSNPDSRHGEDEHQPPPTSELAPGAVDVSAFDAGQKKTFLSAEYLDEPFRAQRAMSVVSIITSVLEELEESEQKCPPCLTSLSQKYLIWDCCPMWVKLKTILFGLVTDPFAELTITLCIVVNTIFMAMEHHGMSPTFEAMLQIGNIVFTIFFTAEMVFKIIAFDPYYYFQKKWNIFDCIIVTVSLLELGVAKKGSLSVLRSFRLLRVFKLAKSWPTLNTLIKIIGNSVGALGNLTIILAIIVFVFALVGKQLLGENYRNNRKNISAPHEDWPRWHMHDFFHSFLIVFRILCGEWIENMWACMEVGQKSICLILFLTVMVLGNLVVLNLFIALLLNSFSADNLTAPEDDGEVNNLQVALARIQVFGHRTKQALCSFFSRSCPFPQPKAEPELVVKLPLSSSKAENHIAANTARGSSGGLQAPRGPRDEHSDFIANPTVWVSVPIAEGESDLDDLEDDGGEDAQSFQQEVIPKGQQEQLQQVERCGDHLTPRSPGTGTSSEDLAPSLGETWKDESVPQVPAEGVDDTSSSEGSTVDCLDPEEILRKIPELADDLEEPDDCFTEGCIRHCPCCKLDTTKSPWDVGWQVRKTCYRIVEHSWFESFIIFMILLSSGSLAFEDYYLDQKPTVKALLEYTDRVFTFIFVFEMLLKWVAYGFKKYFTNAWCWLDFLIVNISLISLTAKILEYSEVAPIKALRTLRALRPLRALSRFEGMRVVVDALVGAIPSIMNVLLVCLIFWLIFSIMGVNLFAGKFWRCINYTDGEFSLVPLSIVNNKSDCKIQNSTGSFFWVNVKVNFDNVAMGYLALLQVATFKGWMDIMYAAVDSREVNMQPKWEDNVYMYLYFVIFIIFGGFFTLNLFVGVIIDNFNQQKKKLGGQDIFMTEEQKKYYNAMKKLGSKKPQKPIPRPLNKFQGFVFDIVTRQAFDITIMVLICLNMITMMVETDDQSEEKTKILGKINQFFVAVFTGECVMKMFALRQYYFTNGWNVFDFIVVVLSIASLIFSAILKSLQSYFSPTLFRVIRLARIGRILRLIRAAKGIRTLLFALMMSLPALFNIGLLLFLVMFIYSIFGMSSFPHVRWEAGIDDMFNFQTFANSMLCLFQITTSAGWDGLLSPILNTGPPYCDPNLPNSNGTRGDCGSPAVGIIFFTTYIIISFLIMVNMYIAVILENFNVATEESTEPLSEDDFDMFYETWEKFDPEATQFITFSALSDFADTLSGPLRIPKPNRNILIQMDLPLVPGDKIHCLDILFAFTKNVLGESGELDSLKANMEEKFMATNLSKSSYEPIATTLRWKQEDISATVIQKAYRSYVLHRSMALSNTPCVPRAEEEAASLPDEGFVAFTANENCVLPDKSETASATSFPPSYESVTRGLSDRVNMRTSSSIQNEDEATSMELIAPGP
- Assay: SyncroPatch384PE assay (automated patch clamp)
- Format: cell-based
- Assay Setup: inactivated state block (P2 measurement), human Nav1.8/b3 CHO cells, read-out: P2 IC50

Example cases with answers are listed next.
# input Would you kindly share the measured IC50 for Cc1c(-c2ccn(C)n2)cnc(N2CCCC(F)(F)CC2)c1C(=O)Nc1cccc(S(C)(=N)=O)c1 (stereo not shown) ?
# output 100 to 200 nM

# input Would you kindly share the measured IC50 for Cc1nc(C(F)(F)F)nc(N2CCCC(F)(F)CC2)c1C(=O)Nc1cccc([S@](C)(=N)=O)c1 ?
# output 5 to 50 nM

# input Would you kindly share the measured IC50 for Cc1c(C(F)(F)F)nnc(N2CCCC(F)(F)CC2)c1C(=O)Nc1cccc(S(=N)(N)=O)c1 (stereo not shown) ?
# output ≤ 5 nM

# input Would you kindly share the measured IC50 for Cc1c(C(F)(F)F)nnc(N2CCCCCC2)c1C(=O)N=S(C)(=O)c1cccc(N)c1 (stereo not shown) ?
# output > 200 nM

# input Would you kindly share the measured IC50 for Cc1c(C(=O)Nc2cccc([S@@](C)(=O)=NC(=O)CO)c2)c(N2CCCC(F)(F)CC2)nc(C(F)(F)F)c1-c1cnn(C)c1 ?
# output ≤ 5 nM

Continuing:
# input Would you kindly share the measured IC50 for Cc1c(-c2ccccn2)cnc(N2CCCC(F)(F)CC2)c1C(=O)Nc1cccc(S(C)(=N)=O)c1 (stereo not shown) ?
# output 100 to 200 nM

# input Would you kindly share the measured IC50 for Cc1nc(N2CCCC(F)(F)CC2)c(C(=O)Nc2cccc([S@](C)(=N)=O)c2)c(C)c1C(F)(F)F (single isomer, unassigned) ?
# output ≤ 5 nM

###

- Target Or System: human Nav1.8 (Homo sapiens, UniProt Q9Y5Y9)
- Assay: SyncroPatch384PE assay (automated patch clamp)
- Type: cell-based
- Assay Setup: resting state block (P1 measurement), human Nav1.8/b3 CHO cells, read-out: P1 IC50
pIC50: −log10 of the molar value.
Parameter: pIC50. Scope: all listed entries.

Example cases with answers are listed next.
# input Would you kindly share the measured pIC50 for Cc1c(-c2cnn(C)c2)cnc(N2CCCC(F)(F)CC2)c1C(=O)NC12CC(C(=O)O)(C1)C2 ?
# output ≥ 8.30

# input Would you kindly share the measured pIC50 for Cc1c(C(F)(F)F)nnc(N2CCCC(F)(F)CC2)c1C(=O)Nc1cccc([S@@](C)(=O)=NC(=O)CN2CC(F)(F)C2)c1 ?
# output ≥ 8.30

# input Would you kindly share the measured pIC50 for Cc1c(-c2cnn(C(C)C)c2)cnc(N2CCCC(F)(F)CC2)c1C(=O)Nc1cccc([S@](C)(=N)=O)c1 ?
# output 7.30 to 8.30

Proceeding to the next compound to report its pIC50.
# input Would you kindly share the measured pIC50 for Cc1c(C#N)c(C#N)nc(N2CCCC(F)(F)CC2)c1C(=O)Nc1cccc([S@](C)(=N)=O)c1 ?
# output 7.30 to 8.30

###

- Target Or System: human Nav1.8 (Homo sapiens)
- Assay: SyncroPatch384PE assay (automated patch clamp)
- Assay type: cell-based
- Assay Setup: inactivated state block (P2 measurement), human Nav1.8/b3 CHO cells, read-out: P2 IC50
Structures can show the parent of a compound that is named as a salt.
Measurement Type: IC50

Example cases with answers are listed next.
# input Would you kindly share the measured IC50 for Cc1nc(N2CCCC(F)(F)CC2)c(C(=O)Nc2cccc(S(C)(=N)=O)c2)cc1Cl (stereo not shown) ?
# output ≤ 5 nM

# input Would you kindly share the measured IC50 for Cc1c(C#N)c(C(F)(F)F)nc(N2CCCC(F)(F)CC2)c1C(=O)Nc1cccc([S@@](C)(=O)=NC(=O)C(C)(C)N)c1 [Example 227, formate] ?
# output ≤ 5 nM

# input Would you kindly share the measured IC50 for Cc1c(-c2ccc(F)c(F)c2)cnc(N2CCCC(F)(F)CC2)c1C(=O)Nc1cccc([S@](C)(=N)=O)c1 ?
# output ≤ 5 nM

Proceeding to the next compound to report its IC50.
# input Would you kindly share the measured IC50 for Cc1c(-c2ccccc2)nnc(N2CCCC(F)(F)CC2)c1C(=O)Nc1cccc(S(C)(=N)=O)c1 (stereo not shown) ?
# output 50 to 100 nM
